# system under test: K103N/Y181C double mutant RT (HIV-1 RT) (Human immunodeficiency virus type 1 group M subtype B, UniProt P03366, K702N/Y780C)
# Construct: mutations that occur in the reverse transcriptase segment of the pol gene
# experiment notes: biochemical
pIC50: −log10 of the molar value.
quantity name: pIC50

For orientation, consider the following solved cases.
CCN1c2ncc(CCOc3ccc(C(=O)O)c4c3CCC4)cc2C(=O)N(C)c2cccnc21	6.00 to 7.00
CCN1c2ncc(CCOc3ccc(C(=O)O)c4c3CCCC4)cc2C(=O)N(C)c2ccc(C)nc21	6.00 to 7.00
CCN1c2ncc(CCOc3ccc(CC(C)C(=O)O)c4ccccc34)cc2C(=O)Nc2c(C)ccnc21 (stereo not drawn)	< 6.00

Reported pIC50 for `CCN1c2ncc(CCOc3ccc(C(=O)O)c4c3CCN(S(=O)(=O)N(C)C)C4)cc2C(=O)N(C)c2cccnc21` : what is it?
> 7.00

Report pIC50 for `CCN1c2ncc(CCOc3ccc(/C=C/C(=O)O)c4ccccc34)cc2C(=O)N(C)c2ccc(C)nc21` please.
6.00 to 7.00

Can you share its pIC50? I mean this compound: `CCN1c2ncc(CCOc3ccc(C(=O)O)c4ccccc34)cc2C(=O)N(C)c2ccc(C)nc21`
6.00 to 7.00

---

Listed here: items and their measured pIC50.
# system under test: K103N/Y181C double mutant RT (HIV-1 RT) (Human immunodeficiency virus type 1 group M subtype B, UniProt P03366, K702N/Y780C)
# Construct: mutations that occur in the reverse transcriptase segment of the pol gene
# experiment notes: biochemical
pIC50: −log10 of the molar value.

As a guide, the following entries are already answered.
CCN1c2ncc(CCOc3ccc(C(C)CC(=O)O)c4ccccc34)cc2C(=O)N(C)c2cccnc21 (centres unmarked)	6.00 to 7.00
CCN1c2ncc(CCOc3ccc(CC(=O)O)c4ccccc34)cc2C(=O)N(C)c2ccc(F)nc21	6.00 to 7.00

Dear colleague, I am looking for the recorded pIC50 of the following compound: `CCN1c2ncc(CCOc3ccc(/C=C/C(=O)O)c4ccccc34)cc2C(=O)N(C)c2ccc(Cl)nc21`
6.00 to 7.00

Which value of pIC50 has been reported for `CCN1c2ncc(CCOc3ccc(/C(C)=C/C(=O)O)c4ccccc34)cc2C(=O)N(C)c2cccnc21` in the records?
6.00 to 7.00

Data request, read-out pIC50, for `CCN1c2ncc(CCOc3ccc(NS(=O)(=O)C(F)(F)F)c4ccccc34)cc2C(=O)N(C)c2ccc(F)nc21`
6.00 to 7.00

All values here come from patent US6673791B2.
